B1: Zinc finger homeobox protein 3, residues 2643 to 2698; numbered along this chain, Q15911 (parent)
chain: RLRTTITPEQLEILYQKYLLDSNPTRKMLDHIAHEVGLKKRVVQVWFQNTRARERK

Variants of: B1
Assay: abundance fitness (aPCA) (normalised: wild type 0, dead -1); higher = more abundant; growth selection in yeast, the domain comes from the species named
Conditions: Homo sapiens
recordedMetric: abundance fitness
Format: numeric value only, no unit, no commentary.

H34S; 0.009
Q10T; -0.296
L29Q; -0.254
F47N; -0.835
V45P; -0.764
L2P; -0.227

QUERY: For the variant Q16I , what abundance fitness is on record?
RESULT: -0.073

QUERY: For the variant L29D , what abundance fitness is on record?
RESULT: -0.805

QUERY: For the variant P24N , what abundance fitness is on record?
RESULT: -0.623

QUERY: For the variant D30E , what abundance fitness is on record?
RESULT: -0.29

QUERY: For the variant S22V , what abundance fitness is on record?
RESULT: -0.395

QUERY: For the variant Q16R , what abundance fitness is on record?
RESULT: -0.174

QUERY: For the variant L38S , what abundance fitness is on record?
RESULT: -0.601

QUERY: For the variant T50R , what abundance fitness is on record?
RESULT: -0.037

QUERY: For the variant K56W , what abundance fitness is on record?
RESULT: -0.314

QUERY: For the variant V43T , what abundance fitness is on record?
RESULT: -0.548

QUERY: For the variant V43W , what abundance fitness is on record?
RESULT: -1.07

QUERY: For the variant T5I , what abundance fitness is on record?
RESULT: -0.165

QUERY: For the variant T4C , what abundance fitness is on record?
RESULT: -0.56

QUERY: For the variant L11I , what abundance fitness is on record?
RESULT: -0.224

QUERY: For the variant L19I , what abundance fitness is on record?
RESULT: -0.583

QUERY: For the variant A52W , what abundance fitness is on record?
RESULT: -0.335
